Hi, quick share: literature IC50 data for Cytochrome P450 2C19 (Homo sapiens, UniProt P33261), several sources combined.

Some solved entries appear below for comparison.
{"columns": ["molecule", "IC50"],
 "data": [
  ["CN(C)C(=O)c1cc(C(=O)Nc2cc3n(n2)CCN3c2ccc3c(c2)CCN(C)C3=O)cs1", "> 20 µM"],
  ["C[C@H](c1ccc(F)cc1)n1cncc1CN1CCN(S(=O)(=O)c2cnc(N3CC[C@@H](N4CCOCC4)[C@H](F)C3)s2)CC1", "4.11 µM"],
  ["COc1ncnc2[nH]cc(Cc3ccc(Nc4ccc(C)nc4)nc3F)c12", "> 10 µM"],
  ["C[C@@H](c1ccc(-c2ccc(C(=O)NC(C)(C)C)nn2)cc1)N1CC[C@](CC(C)(C)C#N)(c2ccccc2)OC1=O", "0.8 µM"],
  ["C[C@H]1SC(N)=N[C@](C)(c2cc(NC(=O)c3ccc(F)cn3)ccc2F)C12CC(F)(F)C2", "≥ 20 µM"],
  ["CNc1ncnc2[nH]cc(C(=O)c3ccc(NC4CCC(F)(F)CC4)nc3)c12", "> 10 µM"],
  ["C[C@@H](c1ccc(-c2cccc(S(C)(=O)=O)n2)cc1)N1CC[C@](CC(C)(C)O)(c2ccccc2)OC1=O", "> 50 µM"],
  ["C[C@H](c1ccc(F)cc1)n1cncc1CN1CCN(S(=O)(=O)c2cnc(N3CCN4C[C@H](O)C[C@H]4C3)s2)CC1", "3.85 µM"],
  ["O=C(Nc1ccccc1O)c1ccc(Oc2cccc(C(=O)Nc3ccccc3O)c2)cc1", "> 50 µM"],
  ["Clc1ccc2c(c1)N=C(N1CCNCC1)c1ccccc1C2", "> 10 µM"]
]}

input: Returns the measured IC50 for the input molecule. Input: "Cc1cc(C#N)cnc1C(=O)Nc1ccc(F)c([C@@]2(C)N=C(N)S[C@H](C)[C@@H]2F)c1"
output: ≥ 20 µM

input: Returns the measured IC50 for the input molecule. Input: C[C@H](c1ccc(F)cc1)n1cncc1CN1CCN(S(=O)(=O)c2cnc(N3CCN4C[C@H](O)CC4(C)C3)s2)CC1 (stereo partly drawn)
output: > 10 µM

input: Returns the measured IC50 for the input molecule. Input: C[C@@H](c1ccccc1-c1ccc(F)cc1)n1cncc1C(=O)N1CCC(N2CCCC(C)(O)C2)CC1 (stereo partly drawn)
output: > 10 µM

input: Returns the measured IC50 for the input molecule. Input: C[C@@H](c1ccccc1-c1ccc(F)cc1)n1cncc1C(=O)N1CCC(NC2COC[C@H]2O)CC1 (stereo partly drawn)
output: > 10 µM

input: Returns the measured IC50 for the input molecule. Input: "Cc1ccc(-c2ccc([C@H](C)N3CC[C@](CC(C)(C)C#N)(c4ccccc4)OC3=O)cc2)nn1"
output: 39.5 µM

---

Hi, quick share: literature pIC50 data for Cytochrome P450 2C19 (Homo sapiens), several sources combined.
pIC50: −log10 of the molar value.

input: Please tell me: pIC50 of "COc1ccc(Nc2ccc(C(=O)c3c[nH]c4ncnc(NC5CC5)c34)c(F)n2)cn1" , system Cytochrome P450 2C19 (Homo sapiens)?
output: < 5.00

input: Please tell me: pIC50 of "CN1CCN(c2ncc(S(=O)(=O)N3CCN(Cc4cncn4CCOc4ccc(Cl)cc4)CC3)s2)CC1" , system Cytochrome P450 2C19 (Homo sapiens)?
output: 5.46

input: Please tell me: pIC50 of "COc1cc2c(NC3CCOCC3)nc(N3CCOCC3)nc2cc1OCCCN1CCCC1" , system Cytochrome P450 2C19 (Homo sapiens)?
output: < 4.00

---

Hi, quick share: literature pIC50 data for UniProtKB P33261, several sources combined.
pIC50: −log10 of the molar value.

{"columns": ["compound", "resultType", "endpointValue"],
 "data": [
  ["CCNc1ncnc2[nH]cc(C(=O)c3ccc(Nc4ccc(OC)nc4)nc3F)c12", "pIC50", "< 5.00"],
  ["CSc1ccc2nc(C(O)(c3ccncn3)C(C)C)ccc2c1 (stereo not drawn)", "pIC50", 5.29],
  ["CCS(=O)(=O)Nc1cccc(Oc2cc(=O)n(C)c(Nc3ccc(I)cc3F)c2C(N)=O)c1C", "pIC50", "< 5.00"],
  ["COc1ccc(Nc2ccc(C(=O)c3c[nH]c4ncnc(NC5CCC(F)(F)CC5)c34)c(F)n2)cn1", "pIC50", "4.70 to 5.30"],
  ["C=CC(=O)N1CCN(c2c(C#N)c(OC[C@@H]3CCCN3C)nc3c(F)c(-c4ccc(F)c5sc(N)nc45)c(Cl)cc23)CC1", "pIC50", "< 5.00"],
  ["C[C@@H](c1ccc(-c2nnc(C(F)(F)F)s2)cc1)N1CC[C@](CC(C)(C)O)(c2ccccc2)OC1=O", "pIC50", 4.77]
]}

input: Please tell me: pIC50 of "O=C1COc2cc(NCc3cccc(NC(=O)c4ccccc4Cl)c3)c(Cl)cc2N1" , system UniProtKB P33261?
output: < 4.30

input: Please tell me: pIC50 of "COCCN1CCC(Nc2nc(N3CCC(F)(F)CC3)nc3cc(OCCCN4CCCC4)c(OC)cc23)CC1" , system UniProtKB P33261?
output: < 4.00

input: Please tell me: pIC50 of C[C@@H](c1ccccc1-c1ccc(F)cc1)n1cncc1C(=O)N1CCCC(N2CCC(C)(O)CC2)CC1 (single isomer, unassigned) , system UniProtKB P33261?
output: < 5.00

input: Please tell me: pIC50 of "Cc1cc(Nc2ncc(Cl)c(Nc3cn(C)nc3S(=O)(=O)C(C)C)n2)c(OC2CC2)cc1C1CCN(C(=O)CC#N)CC1" , system UniProtKB P33261?
output: < 5.00

input: Please tell me: pIC50 of "COc1cccc(-c2ccc3nc(NC(=O)NCc4nn[nH]n4)cn3n2)c1" , system UniProtKB P33261?
output: < 4.70

input: Please tell me: pIC50 of "CC(=O)Nc1cccc(Oc2cc(=O)n(C)c(Nc3ccc(I)cc3F)c2C(N)=O)c1C" , system UniProtKB P33261?
output: < 5.00

input: Please tell me: pIC50 of "C[C@H](c1ccc(F)cc1)n1cncc1CN1CCN(S(=O)(=O)c2cnc(N3CCNCC3)cn2)CC1" , system UniProtKB P33261?
output: < 5.00

input: Please tell me: pIC50 of "C[C@H]1SC(N)=N[C@](C)(c2cc(NC(=O)c3cnc(OCC4CC4)cn3)ccc2F)[C@H]1F" , system UniProtKB P33261?
output: ≤ 4.70

input: Please tell me: pIC50 of "COc1ccc(C(=O)Nc2ccc(F)c([C@@]3(C)N=C(N)SCC34CC(F)(F)C4)c2)nc1" , system UniProtKB P33261?
output: ≤ 4.70

---

pIC50: −log10 of the molar value.
Hi, quick share: literature pIC50 data for Cytochrome P450 2C19 (Homo sapiens, UniProt P33261), several sources combined.
resultType: pIC50

{"columns": ["molecule", "pIC50"],
 "data": [
  ["C[C@@H](c1ccc(-c2ccc(F)cn2)cc1)N1CC[C@](CC(C)(C)O)(c2ccccc2)OC1=O", 4.61]
]}

A = C[C@@H](c1ccc(-c2ccc(C#N)cn2)cc1)N1CC[C@](CC(C)(C)O)(c2ccccc2)OC1=O
B = [2H]C([2H])([2H])Oc1ccc(C([2H])([2H])c2cc([C@@H]3O[C@H](CO)[C@@H](O)[C@H](O)[C@H]3O)ccc2Cl)cc1
C = CC(C)C(c1ccc2cc(OCC(F)(F)F)c(OCC(F)(F)F)cc2c1)n1ccnn1 (stereo not drawn)
input: Rank by pIC50 (largest to smallest). Response field: labels, in requested order.
output: C, A, B
(C: 5.36, A: 4.62, B: 3.45)

---

Hi, quick share: literature IC50 data for Cytochrome P450 2C19 (Homo sapiens, UniProt P33261), several sources combined.

Some solved entries appear below for comparison.
{"columns": ["compound", "targetDesc", "endpointValue"],
 "data": [
  ["Cc1cnc2[nH]cc(Cc3ccc(Nc4ccc(C)nc4)nc3F)c2c1", "Cytochrome P450 2C19 (Homo sapiens, UniProt P33261)", "> 10 µM"],
  ["Cc1ccc(-c2ccc([C@H](C)N3CC[C@](CC(C)(C)O)(c4ccccc4)OC3=O)cc2)nn1", "Cytochrome P450 2C19 (Homo sapiens, UniProt P33261)", "> 50 µM"],
  ["C[C@@H](c1ccccc1-c1ccc(F)cc1)n1cncc1C(=O)N1CCN2C[C@H](O)C[C@H]2C1", "Cytochrome P450 2C19 (Homo sapiens, UniProt P33261)", "> 10 µM"],
  ["Cc1cnc2[nH]cc(Cc3ccc(NC4CCCCC4)nc3F)c2c1", "Cytochrome P450 2C19 (Homo sapiens, UniProt P33261)", "< 5 µM"],
  ["C[C@H]1CN(C(=O)c2cncn2[C@@H](C)c2ccccc2-c2ccc(F)cc2)CC[C@H]1N1CC[C@@H](O)C1", "Cytochrome P450 2C19 (Homo sapiens, UniProt P33261)", "> 10 µM"]
]}

input: Please tell me: IC50 of CN1C(=O)N(c2cccc(C(F)(F)F)c2)C2=C(C(=O)NCC2)C1c1ccc(C#N)cc1-c1cccnc1 (stereo not shown) , system Cytochrome P450 2C19 (Homo sapiens, UniProt P33261)?
output: > 50 µM

input: Please tell me: IC50 of "COCC(F)(F)[C@H]1OC(N)=N[C@](C)(c2cc(NC(=O)c3cnc(OCF)cn3)ccc2F)[C@H]1F" , system Cytochrome P450 2C19 (Homo sapiens, UniProt P33261)?
output: ≥ 20 µM

input: Please tell me: IC50 of "Cc1nccc(-c2ccc([C@H](C)N3CC[C@](CC(C)(C)O)(c4ccccc4)OC3=O)cc2)n1" , system Cytochrome P450 2C19 (Homo sapiens, UniProt P33261)?
output: 35.8 µM

input: Please tell me: IC50 of "CC(C)(CCCCCCCCCCCCC(C)(C)C(=O)O)C(=O)O" , system Cytochrome P450 2C19 (Homo sapiens, UniProt P33261)?
output: 46 µM

input: Please tell me: IC50 of "C[C@@]1(c2cc(Nc3ncccc3N)ccc2F)CCSC(N)=N1" , system Cytochrome P450 2C19 (Homo sapiens, UniProt P33261)?
output: > 21 µM

input: Please tell me: IC50 of "O=C(c1cnc(NC2CCC(F)(F)CC2)c(F)c1)c1c[nH]c2ncnc(NCC(F)(F)F)c12" , system Cytochrome P450 2C19 (Homo sapiens, UniProt P33261)?
output: > 10 µM
